Origin of measurements: patent US20240117029A1

# EXPERIMENTAL_SYSTEM: T1, human CCL2 (MCP1) - P8A variant (human, UniProt P13500 24-99)
# T1 construct: Entry is without signal peptide; P8A prevents dimer formation (pure monomer); made in-house; also called monomeric human CCL2; monomeric CCL2
# PROTOCOL: SPR Biacore T200, 37 C, antibody captured, CCL2 as analyte, 1:1 model
VALUE_KIND: T½ (h)
I only need the number, in h, no unit after it.

Reference set, count: 3
BINDER	OBS_VALUE
murine 11K2 (antibody, V domains shown, also called 11K2m; X-0048) VH: EVQLQQSGAELVKAGASVKLSCPASGLNIKDTYMHWVKQRPEQGLEWIGRIDPANGNTKFDPKFQGKATITADTSSNTAYLQLSSLTSEDTAVYYCARGVFGFFDYWGQGTTLTVSS VL: DIQMTQSSSSFSVSLGDRVTITCKATEDIYNRLAWYQQKPGSAPRLLISGATSLETGVPSRFSGSGSGKDYTLSITSLQTEDVATYYCQQFWSAPYTFGGGTKLEIK	8.63
2F6 (antibody, V domains shown, Generated as IgG1 wild type and IgG1 PGLALA with kappa light chain; also called CCL2-0014) VH: QSLEESGGGLVQPEGSLTLTCTASGFSFNNNYYMCWVRQAPGKGLEWIGCISTDDSNTHYASWAQGRFTISKASSTALTLQVAGLTVADMATYFCARDAHFTSYGYGFDLWGPGTLVTVSS VL: DIVMTQTPASVSAAVGGTVSINCRASEDIENLVAWYQQKPGQPPKLLIYQASKLASGVPSRFKGSGSGAEFTLTIGDLESADAATYYCQGDYGSGWIMYSFGGGTDLVVK	0.783
1A4 (antibody, V domains shown, also called CCL2-0008) VH: QSLEESGGDLVKPGASLTLTCTASELDFYWICWVRQAPGKGLEWIACIGAGSSGSTYYASWAKGRFTVSKTSSTTVTLQMTSLTAADTATYFCARTGTEFTYYSLWGPGTLVTVSS VL: ALVMTQTPSSVSAAVGGTVTINCQASQSVYNNNMAWYQQKPGQPPKLLIYTASSLASGVPSHFRGSGSGTQFTLTISDLESDDAATYYCAGYKSYSNDEYGFGGGTEVVVK	2.9

Kindly consider the entry below.
# get_value(readout='T½', item= 1A5 (antibody, V domains shown, Generated as IgG1 wild type and IgG1 PGLALA with kappa light chain; also called CCL2-0009) VH: QEQLVESGGDLVKPEGSLTLTCTASGFSFSTSYWMCWVRQAPGKGLELIACISSSIGVTYYASWAEGRFTISKTSSTTVTLQMTSLTVADTATYFCARTTDDNWNVGFNLWGPGTLVTVSS VL: AYDMTQTPASVEVGVGGTVTIKCQASQSIGNRYLSWYQQKPGQPPKLLIYGTSTLASGVSSRFKGSGSGTQFTLTISGVESADSATYYCQQGATISYLDNAFGGGTEVVVK )
2.28
